Property: melting point; scope: individual compounds
A number alone suffices; assume °C.

{"COMPOUND": "Brc1c2ccccc2cc2ccccc12", "MEASUREMENT UNIT": "°C", "VALUE MEASURED": 100}
{"COMPOUND": "CC(C)(C)C(=O)C=Cc1ccccc1", "MEASUREMENT UNIT": "°C", "VALUE MEASURED": 43}
{"COMPOUND": "CC1CCC(C)C(C)C1C (stereo unspecified)", "MEASUREMENT UNIT": "°C", "VALUE MEASURED": -75}
{"COMPOUND": "COc1ccc2cc(C(O)C(C)O)ccc2c1 (stereo unspecified)", "MEASUREMENT UNIT": "°C", "VALUE MEASURED": 115}
{"COMPOUND": "CCC(CO)NC(=O)C1C=C2c3cccc4[nH]cc(c34)CC2N(C)C1 (stereo unspecified)", "MEASUREMENT UNIT": "°C", "VALUE MEASURED": 172}

Please look at the following compound next.
Need melting point of "CC=CC(=O)c1ccccc1" , thanks.
20.5

The reported measurements were obtained from a melting point compilation (Tetko et al.).
